Data origin, for the record: patent US5795756A

target: rat brain adenylyl cyclase; assay: Inhibition of detergent-dispersed rat brain adenylyl cyclase (Table I); type: biochemical; settings: Table I; 5 mM MnCl2, 100 μM 5'ATP, 100 μM forskolin, pH 7.5, 15 min at 30° C.; read-out: IC50 for inhibition of rat brain adenylyl cyclase
# log10 IC50 per entry
Test Readout: log10 IC50 (log10 of the value in nM)

INSERT INTO assay_data (compound, measured_value) VALUES
  ('C[C@H]1O[C@@H](n2cnc3c(N)ncnc32)C[C@@H]1OP(=O)(O)OP(=O)(O)OP(=O)(O)O [Compound 4, 2'', 5''-dideoxyadenosine-3''-triphosphate]', 1.60),
  ('C[C@H]1O[C@@H](n2cnc3c(N)ncnc32)C[C@@H]1OP(=O)(O)O', 2.66),
  ('Nc1ncnc2c1ncn2[C@H]1C[C@H](OP(=O)(O)OP(=O)(O)OP(=O)(O)OP(=O)(O)O)[C@@H](CO)O1 [Compound 13, 2''-deoxyadenosine-3''-tetraphosphate]', 1.11),
  ('C[C@H]1O[C@@H](n2cnc3c(N)ncnc32)C[C@@H]1OP(=O)(O)OP(=O)(O)OP(=O)(O)OP(=O)(O)O', 1.00),
  ('Nc1ncnc2c1ncn2[C@@H]1O[C@H](CO)[C@@H](OP(=O)(O)OP(=O)(O)O)[C@H]1O [Compound 34, adenosine-3''-diphosphate]', 3.59),
  ('Nc1ncnc2c1ncn2[C@@H]1O[C@H](CO)[C@@H](OP(=O)(O)OP(=O)(O)OP(=O)(O)O)[C@H]1O [Compound 35, adenosine-3''-triphosphate]', 3.30),
  ('Nc1ncnc2c1ncn2[C@@H]1O[C@H](CO)[C@@H](OP(=O)(O)O)[C@H]1O', 3.95),
  ('C[C@H]1O[C@@H](n2cnc3c(N)ncnc32)C[C@@H]1OP(=O)(O)OP(=O)(O)O [Compound 3, 2'', 5''-dideoxyadenosine-3''-diphosphate]', 2.00);
